- System: c-Abl (mouse)
- run description: phosphorylation enrichment, bacterial display (enrichment ratio); higher = better substrate or ligand; peptides without Tyr show the background;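 further: 11-residue human phosphosite peptides and single-mutation variants displayed on the E. coli surface, counted by deep sequencing, each peptide's frequency after selection divided by its frequency in the unselected input library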;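 further: frequency after pTyr selection over input frequency; kinase dosed for 20-30% of maximal phosphorylation in three min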
Here the recorded phosphorylation enrichment is given for each entry.
Please reply with the number alone, leaving off any unit.

Consider the reported phosphorylation enrichment for these sequences:
>  <sequence>
SREDIYKRNTE [PDE4DIP_Y45_I49T]

>  <phosphorylation enrichment>
0.898

$$$$
>  <sequence>
VVEDGYEFFAK [PPP1CB_Y254]

>  <phosphorylation enrichment>
0.574

$$$$

Here's the next entry for you.
Exercise: // Input: LENSTYQYIHV [CRB1_Y760_R764H] . Output its phosphorylation enrichment only.
Solution: 1.01

###

- measured target: Fes (UniProt P07332)
- Sequence (P07332 whole entry, looked up): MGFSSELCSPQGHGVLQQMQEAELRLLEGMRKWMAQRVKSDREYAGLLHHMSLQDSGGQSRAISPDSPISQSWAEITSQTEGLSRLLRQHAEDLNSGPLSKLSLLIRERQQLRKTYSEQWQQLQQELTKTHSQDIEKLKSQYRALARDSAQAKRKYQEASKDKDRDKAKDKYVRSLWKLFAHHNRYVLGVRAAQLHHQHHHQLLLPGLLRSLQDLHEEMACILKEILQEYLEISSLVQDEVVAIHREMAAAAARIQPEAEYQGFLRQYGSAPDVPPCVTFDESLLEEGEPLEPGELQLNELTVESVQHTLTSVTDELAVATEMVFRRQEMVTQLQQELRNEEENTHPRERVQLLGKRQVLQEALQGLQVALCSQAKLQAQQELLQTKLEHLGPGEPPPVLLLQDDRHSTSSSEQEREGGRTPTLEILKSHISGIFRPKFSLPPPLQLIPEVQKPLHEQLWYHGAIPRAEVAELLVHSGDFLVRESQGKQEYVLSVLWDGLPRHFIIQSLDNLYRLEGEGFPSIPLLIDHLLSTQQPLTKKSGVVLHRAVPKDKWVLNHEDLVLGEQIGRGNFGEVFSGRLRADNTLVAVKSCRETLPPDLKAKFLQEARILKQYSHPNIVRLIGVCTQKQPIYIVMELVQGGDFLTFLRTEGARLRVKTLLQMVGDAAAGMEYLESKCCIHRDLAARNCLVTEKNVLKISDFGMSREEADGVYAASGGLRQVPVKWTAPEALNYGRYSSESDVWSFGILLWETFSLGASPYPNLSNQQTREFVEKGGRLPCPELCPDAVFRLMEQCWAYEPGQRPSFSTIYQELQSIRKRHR
- run description: phosphorylation enrichment, bacterial display (enrichment ratio); higher = better substrate or ligand; peptides without Tyr show the background
Here the recorded phosphorylation enrichment is given for each entry.
Please reply with the number alone, leaving off any unit.

>  <sequence>
FFTEEYVRAHP [DOCK2_Y1555_D1558A]

>  <measured target>
Fes (UniProt P07332)

>  <phosphorylation enrichment>
1.32

$$$$

Exercise: // Input: SLTRLYVGENA [NLRP3_Y861] . Output its phosphorylation enrichment only.
Solution: 0.703

Exercise: // Input: TVSSDYLHPQF [CCPG1_Y569_F566S_YF] . Output its phosphorylation enrichment only.
Solution: 0.927

Exercise: // Input: QVMDGYPMPIG [MMP14_Y353] . Output its phosphorylation enrichment only.
Solution: 0.964

Exercise: // Input: KFSNQYKATIG [RAB7A_Y37] . Output its phosphorylation enrichment only.
Solution: 0.613

Exercise: // Input: NLAAQYTTVGR [SGSH_Y240_D235N] . Output its phosphorylation enrichment only.
Solution: 0.489

Exercise: // Input: GVTLLYFGRDN [ADGRD1_Y85_Y89D_YF] . Output its phosphorylation enrichment only.
Solution: 1.04

###

- measured target: Fes (UniProt P07332)
- run description: phosphorylation enrichment, bacterial display (enrichment ratio); higher = better substrate or ligand; peptides without Tyr show the background
Classify by measured phosphorylation enrichment: Condition met if it is equal to or exceeds 1, Condition not met if it is smaller.

>  <sequence>
MFVKSYTIHFS [F5_Y2153_YF]

>  <category label>
Condition met

$$$$
>  <sequence>
GVMLLYYGRYN [ADGRD1_Y85_T82M]

>  <category label>
Condition met

$$$$
>  <sequence>
IITDFYVDMKF [MPP4_Y567_V562I_YF]

>  <category label>
Condition met

$$$$
>  <sequence>
PPSLSYLSFEG [EXOSC3_Y143_A139P]

>  <category label>
Condition not met

$$$$
>  <sequence>
YGPPQYNIQYS [ERBB2IP_Y977]

>  <category label>
Condition not met

$$$$

Exercise: Is it the case that AGADGYDFLAP [FOXL2_Y186_G187D_YF] has phosphorylation enrichment reaching or exceeding 1?
Solution: Condition met

Exercise: Is it the case that EEKKKYYDAKI [CASP5_Y103_T106A] has phosphorylation enrichment reaching or exceeding 1?
Solution: Condition not met

Exercise: Is it the case that RTMPDYTSFNT [EPHB2_Y912_I909M] has phosphorylation enrichment reaching or exceeding 1?
Solution: Condition not met

Exercise: Is it the case that ITLKGYNLSNS [GNPTAB_Y728_K732N] has phosphorylation enrichment reaching or exceeding 1?
Solution: Condition not met

Exercise: Is it the case that RHPLDYLRQYP [NARS2_Y138_E137D] has phosphorylation enrichment reaching or exceeding 1?
Solution: Condition met

Exercise: Is it the case that FVKEPYIQSRF [HIPK4_Y175_YF] has phosphorylation enrichment reaching or exceeding 1?
Solution: Condition not met

Exercise: Is it the case that MHDSNCVSKGS [PDGFRA_Y849_Y849C] has phosphorylation enrichment reaching or exceeding 1?
Solution: Condition not met

Exercise: Is it the case that RHPLEYLRQYP [NARS2_Y138] has phosphorylation enrichment reaching or exceeding 1?
Solution: Condition met
